# TEST METHOD NOTES: logP by HPLC on reversed-phase columns (EEC Directive 79/831 Annex V.A8)
# Format: physicochemical
# TEST CONTEXT: pH 7.8
Threshold rule: log p greater than or equal to 3 is t; below that, f.

COMPOUND	CATEGORY LABEL
COCC1COC(c2cccc(Nc3ncc(C(F)(F)F)c(NC4CC4C)n3)c2)O1 (stereo not drawn)	t
Fc1ccc(Nc2ncc(Br)c(NC3CC3)n2)cc1C1OCCCO1	t
COCC1COC(c2cccc(Nc3ncc(Br)c(NC4CC4C)n3)c2)O1 (stereo not drawn)	t
C#CCNc1nc(Nc2cccc(C3OCCO3)c2)ncc1Cl	f
CCC1(CO)COC(c2cccc(Nc3ncc(Cl)c(NC4CC4)n3)c2)OC1 (stereo not drawn)	f
CC1CSC(c2cccc(Nc3ncc(Cl)c(NC4CCC4)n3)c2)S1 (stereo not drawn)	t
Clc1cnc(Nc2cccc(C3OCC(CBr)O3)c2)nc1NC1CC1 (stereo not drawn)	t

// provenance: patent US20110245249A1
